Catalogue of Kd values
- Measurement Target: UniProt:Q13526
- Sequence (Q13526 whole entry): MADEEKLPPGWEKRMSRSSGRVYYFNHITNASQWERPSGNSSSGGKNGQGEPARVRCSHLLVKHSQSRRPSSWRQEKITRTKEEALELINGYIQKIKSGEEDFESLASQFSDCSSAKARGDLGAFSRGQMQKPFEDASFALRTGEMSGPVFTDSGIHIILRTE
- Measurement Protocol: NMR methyl chemical shift perturbation titration; intermolecular NOEs and NMR2 complex structure
Please answer using a numeric value trailed by its unit.

# annotated cases, reported Kd shown
In [3]: df
Out[3]:
                                   compound  result_type  result
0  Cc1cccc(-c2nc(C(=O)O)c(C)[nH]2)c1 [compound 1]           Kd  260 µM
1  Cc1nc(-c2cccc(Cl)c2)[nH]c1C(=O)O [compound 2]           Kd  670 µM

--- query ---
// query Request the reported Kd associated with Cc1nc(-c2cccc(C(F)(F)F)c2)[nH]c1C(=O)O [compound 3]
// result 6700 µM
